# TEST_SYSTEM: sigma receptor
# MEASUREMENT_NOTES: Binding affinity for the sigma receptor ([3H]-DTG binding test)
# STATED_CONDITIONS: [3H]-DTG 3 nM, rat whole brain membrane, 25° C., 60 minutes; ± SED; read-out: Inhibitory activity IC50
Measured IC50, listed per entry for reference.
Write down the numeric answer in µM and omit the unit.

COc1cccc(N2CCN(CCCN3C(=O)CCc4c(Cl)cccc43)CC2)c1 : 0.13

Now let's try a different one.
Problem: In one line, give reported IC50 of the entry COc1cccc2c1CCC(=O)N2CCCN1CCN(c2cccc(Cl)c2)CC1.Cl [Test compound 1, hydrochloride] .
Solution: 0.34
